readoutLabel: melting point

QUERY: What melting point value was documented for this compound, CC1=C(Nc2ccc(NCCc3ccccc3C)cc2Cl)CCCC1=O ?
RESULT: 160 to 162 °C

QUERY: If you can, please state the reported melting point value of CC1=C(Nc2ccc(NC(=O)c3ccccc3C)cc2Cl)CCC1=O .
RESULT: 280 to 283 °C

QUERY: melting point lookup needed for CC1=C(Nc2cc(S(N)(=O)=O)ccc2Cl)CCC1=O (hydrate or solvate) , thanks.
RESULT: 223 to 225 °C

QUERY: Look at this compound and give its reported melting point. CC1=C(Nc2cc(NC(=O)C3CCCCC3)ccc2Cl)CCC1=O
RESULT: 240 to 242 °C

QUERY: What measured melting point goes with CC1=C(Nc2ncccc2Cl)CCCC1=O ?
RESULT: 113 to 115 °C

QUERY: Requested field: melting point. Item: CC1=C(Nc2ccc(C(=O)O)c(C)c2)CCC1=O
RESULT: 213 to 216 °C

QUERY: Returns the measured melting point for the input compound. Input: COc1ccccc1S(=O)(=O)Nc1ccc(Cl)c(NC2=C(C)C(=O)CC2)c1
RESULT: 198 to 200 °C

QUERY: Value lookup for melting point; key = CC1=C(Nc2cc(NS(=O)(=O)C3CCCCC3)ccc2Cl)CCCC1=O
RESULT: 215 to 217 °C

QUERY: State the recorded melting point for this entry: CC1=C(Nc2cccc(NCCc3ccccc3C)c2Cl)CCCC1=O
RESULT: 157 to 160 °C

QUERY: GET /values?readout=melting point&item= CC1=C(Nc2cc(NS(=O)(=O)c3ccccc3C#N)ccc2Cl)CCC1=O
RESULT: 235 to 238 °C

QUERY: // lookup melting point for CC1=C(Nc2ccc(S(N)(=O)=O)cc2)CCC1=O (hydrate or solvate)
RESULT: 245 to 247 °C

QUERY: Quick one: melting point of CC1=C(Nc2ccc(C(=O)O)c(Cl)c2)CCC1=O ?
RESULT: 239 to 241 °C

QUERY: melting point for CC1=C(Nc2cccc(NC(=O)c3ccccc3C)c2Cl)CCC1=O ?
RESULT: 118 to 120 °C

QUERY: Given the compound CC1=C(Nc2ccc(C(=O)O)cc2F)CCC1=O , what is its reported melting point?
RESULT: 210 to 213 °C

QUERY: melting point for CC1=C(Nc2ccc3cnccc3c2)CCCC1=O ?
RESULT: 163 to 165 °C

QUERY: Consider the compound CC1=C(Nc2ccccc2C(=O)O)CCC1=O and give its measured melting point.
RESULT: 245 to 248 °C

QUERY: Entry CC1=C(Nc2cc(NCc3ccccc3C)ccc2Cl)CCCC1=O has what melting point?
RESULT: 158 to 160 °C

QUERY: Any idea what its melting point is? The compound is CC1=C(NC2CCN(C(=O)OC(C)(C)C)CC2)CCC1=O (hydrate or solvate)
RESULT: 189 to 191 °C

QUERY: For COc1cc(C(=O)O)ccc1NC1=C(C)C(=O)CC1 , what is its reported melting point?
RESULT: 231 to 234 °C
